TARGET SYSTEM: MKNK1 (human)
ASSAY REMARKS: KINOMEscan competition binding
EXPERIMENTAL CONDITIONS: compound 10.0 µM
Collected kinase still bound, per cent of control values appear next to each entry.
Value expressed in %; do not type the unit.

{"MOLECULE": "CCc1nc(-c2cccc(C)c2)c(-c2ccnc(NC(=O)c3ccccc3)c2)s1", "kinase still bound, per cent of control / %": 100}
{"MOLECULE": "CCN1CCN(Cc2ccc(NC(=O)c3ccc(C)c(/C=C/c4cnc5[nH]ccc5c4OC)c3)cc2C(F)(F)F)CC1", "kinase still bound, per cent of control / %": 68}
{"MOLECULE": "N#Cc1cc(-c2ccnc(Nc3ccc(-n4cnc(-c5cccnc5)n4)cc3)n2)cc(N2CCOCC2)c1", "kinase still bound, per cent of control / %": 100}

// next entry
Exam item: Given the entry CC1=C(C(=O)Nc2cc3cn[nH]c3cc2F)C(c2ccc(C(F)(F)F)cc2)CC(=O)N1 (configuration not stated) , what kinase still bound, per cent of control was observed with MKNK1 (human)?
Marked response: 100

Values from the kinase profiling compilation of Christmann-Franck et al. (2016)
